System: BJ
Experimental Details: cells
Format: functional, cell-based
Condition: Homo sapiens
Calls of active or inactive are those of the source.
Could you please report measured EC50 for the items listed next?

Worked examples follow.
Cc1ccc(C(=O)c2cc([N+](=O)[O-])ccc2N2CC(C)OC(C)C2)cc1 (centres undefined) = 31.6 µM (active)
O=C1CSC(=S)N1Cc1cccnc1 = 21.1 µM (active)
Cc1nn(-c2ccccc2)c(C)c1/C=N/NC(=O)c1cc(-c2cccs2)[nH]n1 = 0.79 µM (active)

Now look at this one.
[in] Determine from records and report EC50 for `N/C(=C\C(=O)c1cc(Cl)ccc1O)C(Cl)(Cl)Cl`
[out] 5.09 µM (active)

---

System: INS1
Experimental Details: INS-1E survival protection against cytokine death – cell-based, luminescence, retest, dose response (AID 449756);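 note: cell death triggered by IL-1 beta plus TNF-alpha plus IFN-gamma mixture; protective hits raise ATP signal compared with cytokine alone wells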
Format: functional
Condition: Rattus norvegicus
The source made the active and inactive calls.
Attribute Measured: AC50

Worked examples follow.
CC1(C(=O)OCC(=O)N2c3ccccc3Sc3ccccc32)CC1(Cl)Cl (stereo not given) = 37.4 µM (active)
Cc1ccc(C(=O)NC(=S)/C=C2\N(C)c3ccccc3C2(C)C)cc1 = 2.33 µM (active)
COc1ccc(-c2c[n+](-c3ccc(OC)cc3)c3n2-c2ccccc2CC3)cc1 = 0.786 µM (active)
C/C(Cn1nnc([N+](=O)[O-])n1)=N\NC(=O)c1ccccc1Cl = 10.5 µM (active)
COc1ccccc1/C=N/OCc1cc(C(C)=O)ccc1OC = 44.6 µM (active)
Cc1ccc(C(=O)Nc2cccc3[nH]c(C(F)(F)F)nc23)cc1 = 7.25 µM (active)
Cc1cc(C(C)(C)C)cc(C)c1C[n+]1c2n(c3ccc(C(F)(F)F)cc31)CCCCC2 = 3.43 µM (active)
O=C(COc1ccccc1-c1ccccc1)N/N=C/c1ccc2ccccc2c1 = 9.14 µM (active)
CCOc1ccc(/C=N/NC(=O)c2[nH]ncc2Br)c(O)c1 = 1.14 µM (active)

Now look at this one.
[in] Determine from records and report AC50 for `CN1/C(=C\C(S)=Nc2ccccc2)C(C)(C)c2ccccc21`
[out] 8.05 µM (active)

---

System: Streptokinase A (Streptococcus pyogenes serotype M1, UniProt P10520)
Sequence (P10520 whole entry): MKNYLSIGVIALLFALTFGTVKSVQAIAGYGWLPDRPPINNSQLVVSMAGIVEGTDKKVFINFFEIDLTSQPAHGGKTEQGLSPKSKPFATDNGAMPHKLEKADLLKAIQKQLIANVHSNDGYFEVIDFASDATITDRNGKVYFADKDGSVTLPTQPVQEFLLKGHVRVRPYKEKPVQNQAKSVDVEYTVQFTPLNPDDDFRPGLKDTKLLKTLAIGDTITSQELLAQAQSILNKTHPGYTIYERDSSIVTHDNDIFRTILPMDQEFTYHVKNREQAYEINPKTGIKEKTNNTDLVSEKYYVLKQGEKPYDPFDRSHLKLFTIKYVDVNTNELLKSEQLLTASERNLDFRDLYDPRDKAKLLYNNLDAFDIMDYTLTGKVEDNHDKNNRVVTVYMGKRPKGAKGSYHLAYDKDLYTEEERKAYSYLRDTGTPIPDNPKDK
Experimental Details: viability-normalized secreted streptokinase activity reduction – plasminogen activation absorbance, OD405, dose response (AID 1914);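 note: secreted streptokinase activity via plasminogen activation per viability signal from cell pellet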
Assay type: functional, Streptococcus pyogenes M1 GAS
Active and inactive are the calls of the source.
Attribute Measured: EC50

Worked examples follow.
COc1ccccc1Oc1c[nH]nc1-c1ccc(OCC(=O)NN)cc1O = > 150 µM (not active)
COc1cccc(-c2coc3c(C)c4oc(=O)c(CCC(=O)O)c(C)c4cc23)c1 = > 150 µM (not active)
Nc1nc(CN2CCC(Cc3ccccc3)CC2)nc(Nc2ccccc2)n1 = > 150 µM (not active)

Go through the list and state EC50 for each entry.
1. C=CCSc1nsc(NC(=O)Nc2ccc(F)cc2)n1
2. CC(C)(C)NS(=O)(=O)c1ccc(NS(=O)(=O)Cc2ccccc2)cc1

[out]
1: 23.4 µM (active); 2: > 150 µM (not active)

---

System: Peroxisome proliferator-activated receptor gamma/Nuclear receptor coactivator 2 (Homo sapiens, UniProt P37231);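 note: agonist potency for raising coactivator recruitment to the receptor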
Sequence (P37231 whole entry): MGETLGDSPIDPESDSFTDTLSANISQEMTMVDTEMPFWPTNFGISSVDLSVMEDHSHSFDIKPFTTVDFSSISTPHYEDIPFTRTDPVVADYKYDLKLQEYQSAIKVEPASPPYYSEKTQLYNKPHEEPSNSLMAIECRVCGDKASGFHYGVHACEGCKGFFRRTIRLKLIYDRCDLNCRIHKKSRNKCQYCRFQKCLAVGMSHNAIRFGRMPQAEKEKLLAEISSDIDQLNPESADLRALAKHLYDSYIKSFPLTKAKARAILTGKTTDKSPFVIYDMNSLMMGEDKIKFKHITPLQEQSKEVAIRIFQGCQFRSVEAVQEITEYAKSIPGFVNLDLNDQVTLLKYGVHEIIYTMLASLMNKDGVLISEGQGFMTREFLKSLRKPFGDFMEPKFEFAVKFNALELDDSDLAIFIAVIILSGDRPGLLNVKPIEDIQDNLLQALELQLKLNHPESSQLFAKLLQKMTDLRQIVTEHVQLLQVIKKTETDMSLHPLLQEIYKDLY
Sequence (Q15596 whole entry, further chain): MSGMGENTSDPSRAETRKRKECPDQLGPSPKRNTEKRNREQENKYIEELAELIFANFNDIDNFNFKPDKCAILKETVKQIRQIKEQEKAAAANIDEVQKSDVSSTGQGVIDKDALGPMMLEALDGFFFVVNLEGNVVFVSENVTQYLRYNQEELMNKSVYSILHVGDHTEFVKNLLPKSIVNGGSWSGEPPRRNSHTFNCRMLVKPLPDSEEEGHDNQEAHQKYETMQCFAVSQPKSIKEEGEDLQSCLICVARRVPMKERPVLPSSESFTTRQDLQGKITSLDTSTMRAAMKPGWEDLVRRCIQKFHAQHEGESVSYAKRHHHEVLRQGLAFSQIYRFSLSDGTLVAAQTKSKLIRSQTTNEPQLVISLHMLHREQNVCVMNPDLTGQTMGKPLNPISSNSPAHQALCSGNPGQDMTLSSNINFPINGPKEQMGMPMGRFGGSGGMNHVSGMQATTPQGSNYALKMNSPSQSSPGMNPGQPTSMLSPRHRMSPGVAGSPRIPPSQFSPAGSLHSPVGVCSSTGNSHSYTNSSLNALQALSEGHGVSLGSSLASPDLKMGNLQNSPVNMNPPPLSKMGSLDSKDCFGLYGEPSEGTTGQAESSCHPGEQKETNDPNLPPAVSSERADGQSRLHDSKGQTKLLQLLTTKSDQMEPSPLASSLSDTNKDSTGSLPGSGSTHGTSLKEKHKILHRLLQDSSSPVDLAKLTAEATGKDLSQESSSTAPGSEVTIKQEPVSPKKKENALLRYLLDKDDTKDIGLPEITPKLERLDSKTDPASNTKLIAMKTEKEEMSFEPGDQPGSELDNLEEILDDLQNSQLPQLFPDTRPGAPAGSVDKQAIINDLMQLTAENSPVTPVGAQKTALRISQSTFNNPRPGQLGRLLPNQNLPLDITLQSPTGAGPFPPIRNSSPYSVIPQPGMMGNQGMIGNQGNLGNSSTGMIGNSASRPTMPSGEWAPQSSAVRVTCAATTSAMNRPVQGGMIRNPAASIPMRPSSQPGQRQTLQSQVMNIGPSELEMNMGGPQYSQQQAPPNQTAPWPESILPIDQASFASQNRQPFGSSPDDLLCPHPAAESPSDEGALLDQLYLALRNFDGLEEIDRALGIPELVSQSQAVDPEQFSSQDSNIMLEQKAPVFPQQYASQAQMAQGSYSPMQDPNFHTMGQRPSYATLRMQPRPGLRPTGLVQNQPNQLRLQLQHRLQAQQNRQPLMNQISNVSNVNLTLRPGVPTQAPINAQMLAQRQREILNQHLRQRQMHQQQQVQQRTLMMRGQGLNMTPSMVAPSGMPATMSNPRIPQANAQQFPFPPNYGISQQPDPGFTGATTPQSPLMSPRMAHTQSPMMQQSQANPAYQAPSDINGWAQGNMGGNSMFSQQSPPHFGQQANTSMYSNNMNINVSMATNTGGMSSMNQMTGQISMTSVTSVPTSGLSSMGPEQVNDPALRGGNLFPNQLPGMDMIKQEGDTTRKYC
Format: functional
Could you please report measured EC50 for the items listed next?

Worked examples follow.
N#Cc1c(NC(=O)c2ccccc2Cl)n(Cc2ccccc2)c2nc3ccccc3nc12 = > 26.5 µM (not active)
O=C(N/N=C/c1ccc(O)cc1)c1csc2ccccc12 = > 79.4 µM (not active)
CC(C)(O)C#Cc1ccc(CN2CCN(C3CCCCC3)C(CCO)C2)cc1 (centres undefined) = > 79.4 µM (not active)

[in] Determine from records and report EC50 for `CN(CP(=O)(O)CN(C)S(C)(=O)=O)S(C)(=O)=O`
[out] > 79.4 µM (not active)

---

System: DNA dC->dU-editing enzyme APOBEC-3G (Homo sapiens, UniProt Q9HC16);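 note: Dose-response counterscreen measuring inhibition of APOBEC3G DNA deaminase activity, run while confirming APOBEC3A inhibitors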
Sequence (Q9HC16 whole entry): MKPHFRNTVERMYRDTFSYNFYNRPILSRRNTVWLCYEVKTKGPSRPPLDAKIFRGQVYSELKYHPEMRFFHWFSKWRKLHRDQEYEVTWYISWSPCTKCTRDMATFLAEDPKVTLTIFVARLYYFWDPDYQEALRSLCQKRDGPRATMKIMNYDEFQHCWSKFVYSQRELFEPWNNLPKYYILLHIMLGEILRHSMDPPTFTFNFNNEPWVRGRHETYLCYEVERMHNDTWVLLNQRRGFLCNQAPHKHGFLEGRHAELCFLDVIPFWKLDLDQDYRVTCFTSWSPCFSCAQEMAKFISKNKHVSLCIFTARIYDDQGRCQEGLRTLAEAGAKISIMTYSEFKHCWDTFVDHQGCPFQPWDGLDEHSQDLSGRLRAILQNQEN
Format: functional
Active and inactive are the calls of the source.
Attribute Measured: IC50

Go through the list and state IC50 for each entry.
1. CCCCn1c(N)c(N(CCOC)C(=O)c2cc(-c3ccc(OC)c(OC)c3)nc3ccccc23)c(=O)[nH]c1=O
2. O=C(/C=C/c1ccco1)N1CCN(S(=O)(=O)c2cccc([N+](=O)[O-])c2)CC1
3. Cc1cc(C(=O)O)ccc1-c1ccc(/C=C2\NC(=O)N(Cc3ccc(F)cc3)C2=O)o1
4. CCCCCn1c2c(c(=N)c3ccccc31)CCC2

[out]
["9.16 µM (active)", "23.6 µM (active)", "42 µM (active)", "3.19 µM (active)"]

---

System: Heat shock factor protein 1 (Mus musculus, UniProt P38532)
Sequence (P38532 whole entry): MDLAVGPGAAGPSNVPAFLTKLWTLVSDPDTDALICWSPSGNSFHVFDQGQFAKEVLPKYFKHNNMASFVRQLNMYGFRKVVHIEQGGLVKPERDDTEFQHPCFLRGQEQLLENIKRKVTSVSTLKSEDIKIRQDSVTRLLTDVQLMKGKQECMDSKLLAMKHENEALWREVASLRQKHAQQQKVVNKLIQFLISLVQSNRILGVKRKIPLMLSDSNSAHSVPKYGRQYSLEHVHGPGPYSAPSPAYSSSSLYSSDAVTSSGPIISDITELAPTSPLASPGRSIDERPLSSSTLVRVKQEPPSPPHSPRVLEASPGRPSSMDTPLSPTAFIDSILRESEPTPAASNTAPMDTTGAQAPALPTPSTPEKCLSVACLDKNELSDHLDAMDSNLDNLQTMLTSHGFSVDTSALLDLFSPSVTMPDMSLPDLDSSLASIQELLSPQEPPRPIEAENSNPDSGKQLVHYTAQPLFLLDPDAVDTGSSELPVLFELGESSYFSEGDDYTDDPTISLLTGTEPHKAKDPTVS
Experimental Details: enhancement of HSF1-driven luciferase signal – cell-based, NIH3T3, luminescence, dose retest, confirmation (AID 435004);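 note: stress induced by proteasome inhibitor MG132 added 30 min after compound; luciferase reporter driven by HSF1 response element in NIH3T3 cells; actives raise luminescence as potentiators of the MG132 stress response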
Assay type: functional
Active and inactive are the calls of the source.
Log the outcome using a class from TRUE (active), FALSE (inactive)

// below: answered compounds
CC(=O)Nc1ccccc1OC(C)C(=O)N1CC(C)CC(C)C1 (centres undefined) = FALSE
CCC1CCCCN1C(=O)COC(=O)c1cc2ccccc2cc1O (centres undefined) = FALSE
Cc1ccc(C(=O)O/N=C(\N)Cc2cccc3ccccc23)cc1 = FALSE
COc1cnn(-c2cc(Oc3ccc(C)cc3)ncn2)c(=O)c1Cl = FALSE

[in] What is the recorded call for this compound in the test? `CCCCn1c(NC(=O)c2ccco2)c(S(=O)(=O)c2ccc(C)cc2)c2nc3ccccc3nc21`
[out] TRUE

[in] What is the recorded call for this compound in the test? `COc1ccc(F)cc1S(=O)(=O)Nc1ccc2c(c1)OCO2`
[out] FALSE

[in] What is the recorded call for this compound in the test? O=C(CC1C=Cc2ccccc2N1C(=O)c1ccccc1)c1ccccc1 (centres undefined)
[out] FALSE

[in] What is the recorded call for this compound in the test? `CC1(C)CN(c2cccc(Br)c2)C1=O`
[out] FALSE

[in] What is the recorded call for this compound in the test? `Cc1ccc(S(=O)(=O)NC(=O)Nc2ccc(C)cn2)cc1`
[out] FALSE

---

System: Acyl-homoserine lactone acylase PvdQ (Pseudomonas aeruginosa (strain LESB58), UniProt Q9I194)
Experimental Details: PvdQ acylase enzyme activity blockers – biochemical, fluorescence, plate reader and imaging, cherry-picks, dose response (AID 493231)
Activity calls are given as the source filed them.
Attribute Measured: AC50

Worked examples follow.
O=[N+]([O-])c1ccc(N2CCCC2)nc1 = 5.4 µM (active)
O=C(/C=C/c1cccs1)c1cc(Cl)ccc1O = 4.67 µM (active)
CCCNS(=O)(=O)c1ccc(OC)c(Cl)c1Cl = 8.91 µM (active)
Cn1cccc1C(C#N)c1cccc(F)c1C#N (stereo not given) = 4.57 µM (active)

Now look at this one.
[in] Determine from records and report AC50 for `Cc1ccc2nc(-c3ccc4c(c3)OCCO4)cn2c1`
[out] 1.27 µM (active)

---

System: Polyadenylate-binding protein 1 (Homo sapiens)
Sequence (P11940 whole entry, the tested form may be a part): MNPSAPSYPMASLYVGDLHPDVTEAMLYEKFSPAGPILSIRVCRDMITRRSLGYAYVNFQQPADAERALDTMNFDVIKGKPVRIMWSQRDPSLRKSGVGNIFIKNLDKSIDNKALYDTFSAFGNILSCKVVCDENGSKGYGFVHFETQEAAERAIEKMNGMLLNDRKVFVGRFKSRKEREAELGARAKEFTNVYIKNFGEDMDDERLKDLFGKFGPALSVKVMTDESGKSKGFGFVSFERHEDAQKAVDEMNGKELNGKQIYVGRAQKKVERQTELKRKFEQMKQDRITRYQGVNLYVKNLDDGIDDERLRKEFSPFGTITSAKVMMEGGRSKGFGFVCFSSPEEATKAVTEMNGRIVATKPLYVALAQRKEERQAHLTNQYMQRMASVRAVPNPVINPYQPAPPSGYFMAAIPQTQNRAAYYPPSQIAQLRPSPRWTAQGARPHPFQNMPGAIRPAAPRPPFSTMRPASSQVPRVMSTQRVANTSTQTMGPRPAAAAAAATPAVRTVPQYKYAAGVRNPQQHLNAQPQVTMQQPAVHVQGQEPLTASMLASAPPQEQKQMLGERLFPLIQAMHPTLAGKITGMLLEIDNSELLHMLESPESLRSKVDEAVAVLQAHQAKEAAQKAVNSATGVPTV
Experimental Details: MLLE domain peptide-binding blockers, IC50 – biochemical, fluorescence polarization, FITC-PAM2 peptide, dose response (AID 602259)
Assay type: functional
Condition: read-out: IC50_Mean
Calls of active or inactive are those of the source.
Attribute Measured: IC50

CCc1cccc(CC)c1NC(=O)CSc1nnc(CCC(=O)O)c(O)n1 = > 66 µM (inactive)
CCOC(=O)c1sc(=S)n(-c2ccc3c(c2)OCO3)c1N = > 66 µM (inactive)
COc1ccccc1-n1cc(-c2ccc([N+](=O)[O-])cc2)nc1S = > 66 µM (inactive)
O=C(O)c1ccc2c(c1)NC(=O)C(N1CCCC1)S2 (centres undefined) = 55.5 µM (inactive)
Cc1ccccc1NC(=O)CSc1nnc(C)c(O)n1 = > 66 µM (inactive)

Go through the list and state IC50 for each entry.
1. O=C(COC(=O)CCc1c[nH]c(O)n1)Nc1ccccc1
2. Cc1cc(C)n2cc(CSc3nnc(N)s3)nc2n1
3. CN(C)c1nc2n(c(=O)n1)C(C#N)CS2 (centres undefined)
4. O=C(NC(=S)Nc1nc(-c2ccccc2)cs1)c1cncc(Br)c1

[out]
44.9 µM (inactive)
> 66 µM (inactive)
> 66 µM (inactive)
> 66 µM (inactive)

---

Could you please report measured EC50 for the items listed next?
System: Endoribonuclease toxin MazF (Escherichia coli K-12, UniProt P0AE70)
Sequence (P0AE70 whole entry): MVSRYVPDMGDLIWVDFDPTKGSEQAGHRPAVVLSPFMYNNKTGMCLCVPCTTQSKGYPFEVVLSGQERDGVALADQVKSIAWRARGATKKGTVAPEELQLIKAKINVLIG
Experimental Details: activation of MazEF endoribonuclease cleavage – biochemical, fluorescence, single-stranded RNA substrate, uHTS hits, dose response (AID 588481)
Assay type: functional
Calls of active or inactive are those of the source.

O=C1C(Cl)=C(NCCc2ccccc2)C(=O)N1CCc1ccccc1 = > 99 µM (inactive)
N#C/C(=C\c1ccc(-c2ccc(F)cc2)o1)C(=O)Nc1nc(-c2cccs2)cs1 = > 99 µM (inactive)
Cc1nn(-c2ccccc2)c(O)c1/C=N/c1ccc2[nH]c(O)nc2c1 = > 99 µM (inactive)
CC1CC(=O)N(c2ccc(NCc3ccc(Cl)cc3)c([N+](=O)[O-])c2)C1=O (stereo not given) = 96.1 µM (inactive)

[in] Report its EC50 with Endoribonuclease toxin MazF (Escherichia coli K-12, UniProt P0AE70) as the test system: `O=c1oc(/C=C/c2ccco2)nc2sc3c(c12)CCC3`
[out] > 99 µM (inactive)
